Biological target: human VR1 (Homo sapiens, UniProt Q8NER1)
Construct: expressed in transfected cells
Sequence (Q8NER1 whole entry): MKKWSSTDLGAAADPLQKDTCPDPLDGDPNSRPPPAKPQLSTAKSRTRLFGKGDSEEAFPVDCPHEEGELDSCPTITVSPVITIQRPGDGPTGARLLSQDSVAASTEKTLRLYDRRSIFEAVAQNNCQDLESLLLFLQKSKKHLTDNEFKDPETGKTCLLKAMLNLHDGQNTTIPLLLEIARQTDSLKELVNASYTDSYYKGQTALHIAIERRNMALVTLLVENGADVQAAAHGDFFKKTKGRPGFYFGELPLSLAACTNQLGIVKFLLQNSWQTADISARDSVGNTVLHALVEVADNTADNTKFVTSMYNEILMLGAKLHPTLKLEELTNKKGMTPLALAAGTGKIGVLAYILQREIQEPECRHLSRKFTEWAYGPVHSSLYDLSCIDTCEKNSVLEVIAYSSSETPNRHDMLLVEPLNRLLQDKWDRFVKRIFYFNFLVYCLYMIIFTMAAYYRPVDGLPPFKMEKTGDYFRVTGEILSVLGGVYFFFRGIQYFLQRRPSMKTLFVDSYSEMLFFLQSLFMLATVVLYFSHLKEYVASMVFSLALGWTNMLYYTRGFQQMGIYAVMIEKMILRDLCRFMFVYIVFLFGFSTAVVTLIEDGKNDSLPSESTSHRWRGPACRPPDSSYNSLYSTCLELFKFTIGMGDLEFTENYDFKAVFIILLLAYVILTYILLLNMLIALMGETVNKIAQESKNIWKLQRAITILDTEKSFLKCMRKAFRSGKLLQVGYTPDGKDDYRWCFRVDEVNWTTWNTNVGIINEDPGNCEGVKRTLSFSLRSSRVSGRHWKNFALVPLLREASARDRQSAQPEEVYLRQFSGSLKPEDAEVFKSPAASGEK
Assay: Capsaicin-based assay of human VR1 (FLIPR calcium influx)
Format: cell-based
Settings: activation by capsaicin (400 nM), HEK293-EcR cells expressing human VR1, n=3
readout label: IC50
Express the reported value numerically, then name its unit.

Notebook entry, human VR1 (Homo sapiens, UniProt Q8NER1) assay: IC50 of `Cc1cccnc1-c1ccc(C(=O)Nc2ccc(C(C)(C)C)cc2)nc1` = ? 0.0655 µM

* * *

Biological target: human VR1 (Homo sapiens)
Construct: expressed in transfected cells
Experiment: pH-based assay of human VR1 (FLIPR calcium influx)
Format: cell-based
Conditions: agonist buffer pH 5.5, HEK293-EcR cells expressing human VR1, n=4
readout label: IC50 (nM)
Give bare numbers, in nM.

What does the data say about its IC50? Entry: `Cc1cccnc1-c1ccc(C(=O)Nc2ccc(C(C)(C)C)cc2)nc1` 826
